- Assay Remarks: fluorescence interference in NS3h DNA assay – biochemical, ChemBridge library, Cy5 readout, artefact control for HCV NS3 helicase inhibitor project (AID 720488)
- Applied Conditions: Cy5-dT15 DNA with NS3h, at 100 µM, actives lie on both sides, signal over control mean, under 1 quenches
Out of some 16,000 compounds screened, about 960 (6%) were called active.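 Rule for the calls: active = compound fluorescence over control fluorescence at most 0.8, a quencher, or at least a set upper limit, an enhancer; inactive = ratio between 0.8 and the set upper limit.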 The sample as a whole holds a higher share of actives than the screen did.
Classes used: T = active, F = inactive

[[record]]
molecule = "COc1ccc(C2CC(c3ccc([N+](=O)[O-])cc3)=NN2)cc1 (stereo not given)"
category_label = "T"

[[record]]
molecule = "Cc1cccc(C(=O)Nc2cccc(NC(=O)COc3ccccc3Cl)c2)c1"
category_label = "F"

[[record]]
molecule = "COc1ccc(C2=NN(C(C)=O)C(c3ccccc3)C2)cc1 (stereo not given)"
category_label = "F"

[[record]]
molecule = "COc1cc(/C=C2/SC(=S)N(c3c(C)n(C)n(-c4ccccc4)c3=O)C2=O)c([N+](=O)[O-])cc1OC"
category_label = "F"

[[record]]
molecule = "COC(=O)c1ccccc1NC(=O)c1cncc(Br)c1"
category_label = "F"


###

Each entry below carries its reported fluorescence interference ratio.
- Assay Remarks: fluorescence interference in NS3h DNA assay – biochemical, ChemBridge library, Cy5 readout, artefact control for HCV NS3 helicase inhibitor project (AID 720488)
- Applied Conditions: Cy5-dT15 DNA with NS3h, at 100 µM, actives lie on both sides, signal over control mean, under 1 quenches
Screen size: about 16,000 compounds; about 960 (6%) were called active. This is one part of a sample in which actives are shown more often than they occur.
Quantity: fluorescence interference ratio

[[record]]
compound = "O=C1NC(=O)C(=Cc2cc([N+](=O)[O-])cc(Br)c2O)C(=O)N1"
quantity = "fluorescence interference ratio"
measured_value = 0.895

[[record]]
compound = "Cc1ccccc1CC1S/C(=N/N=C\\c2ccc(N(C)C)cc2)NC1=O (stereo unspecified)"
quantity = "fluorescence interference ratio"
measured_value = 0.981

[[record]]
compound = "COc1cc(/C=C2/C(=O)NC(=O)N(c3ccc(C)cc3)C2=O)ccc1OCCOc1ccc([N+](=O)[O-])cc1"
quantity = "fluorescence interference ratio"
measured_value = 0.823

[[record]]
compound = "COc1ccc(/C=C2\\C(=O)NC(=S)N(c3ccc(Br)cc3)C2=O)cc1"
quantity = "fluorescence interference ratio"
measured_value = 1.05

[[record]]
compound = "CCCOc1ccc(C(=O)Nc2ccc(-c3nc4ccccc4o3)c(O)c2)cc1"
quantity = "fluorescence interference ratio"
measured_value = 1.03

[[record]]
compound = "O=[N+]([O-])c1ccc(N2CCN(CCO)CC2)cc1NC(c1ccccc1)c1ccccc1"
quantity = "fluorescence interference ratio"
measured_value = 0.793

[[record]]
compound = "Cc1nn(-c2ccc(I)cc2)c(C)c1-c1cccc([N+](=O)[O-])c1"
quantity = "fluorescence interference ratio"
measured_value = 0.947

[[record]]
compound = "CCCCOCP(=O)(c1ccccc1)c1ccccc1"
quantity = "fluorescence interference ratio"
measured_value = 1.1

[[record]]
compound = "COc1cc(C=C2C(=O)NC(=O)NC2=O)ccc1OCCOc1ccc([N+](=O)[O-])cc1"
quantity = "fluorescence interference ratio"
measured_value = 0.699

[[record]]
compound = "COc1ccc(C(=O)Nc2ccccc2)cc1NC(=O)C(C)Oc1ccccc1 (stereo unspecified)"
quantity = "fluorescence interference ratio"
measured_value = 0.898

[[record]]
compound = "COCCOC(=O)c1c(C)oc2ccc(OCC(N)=O)cc12"
quantity = "fluorescence interference ratio"
measured_value = 1.05

